Each recorded value in this set is attributed to ChEMBL document CHEMBL1201862.

- System: LXFL 529
- Protocol description: NCI tumour cell line growth inhibition, 48 h
Activity calls are given as the source filed them. Cut-off read from the data, not from the text of the source: active = GI50 up to about 1.1 µM and inactive = higher.
Give one outcome, nothing more. List: active, inactive

# count of solved cases: 2
Can you look up the reported call for CCCCCCCCCCCCC(CC)CCCCC(=O)O (stereo unspecified) for me?
inactive

Can you look up the reported call for S=C(N/N=C/c1ccccc1)NC1CC(c2ccccc2)Oc2ccccc21 (stereo unspecified) for me?
inactive

***
Can you look up the reported call for O=C(CO)CC(=O)C(=O)Nc1ccccc1 for me?
inactive

Can you look up the reported call for O=C1C2Cc3ccccc3CN2C(=O)N1CCN1CCCC1 (stereo unspecified) for me?
inactive

Can you look up the reported call for CC12Oc3ccc4ccccc4c3CC1Cc1c(ccc3ccccc13)O2 (stereo unspecified) for me?
inactive

Can you look up the reported call for COc1cc2cc3c4c(cc(OC)c(OC)c4c2cc1OC)CCN3C(=O)CCCC(=O)O for me?
inactive

Can you look up the reported call for COc1ccc(OC)c(/C=C/C(=O)C(C)(C)C)c1 for me?
inactive

Can you look up the reported call for N#C/C(=C\c1ccc[nH]1)C(=O)c1ccccc1 for me?
inactive

----------
- Tested on: RPMI-8226
- Protocol description: NCI tumour cell line growth inhibition, 48 h
The source made the active and inactive calls. Rule as the data show it: active = GI50 up to about 1.1 µM and inactive = higher.
Measured property: GI50

Worked set:
Memo: CC1(C)NC(=O)N(CCCCCCN2C(=O)NC(C)(C)C2=O)C1=O , reported GI50: > 100 µM (inactive)

Memo: O=[N+]([O-])c1cc(Cl)ccc1S(=O)(=O)c1ccc(Cl)cc1[N+](=O)[O-] , reported GI50: 29.6 µM (inactive)

Memo: CCOC(=O)C1Cc2ccc3c4c(ccc(c24)C1)CC(C(=O)OCC)C3 , reported GI50: > 100 µM (inactive)

***
Memo: Cc1cc2cc3c(cc2c(-c2ccc([N+](=O)[O-])cc2)n1)OCO3 , reported GI50: 35.8 µM (inactive)

Memo: O=C(CN1CCOCC1)c1ccc2c(c1)oc(=O)n2CCN1CCCCC1 , reported GI50: > 100 µM (inactive)

Memo: O=C(O)C1CC2CC(=O)C1C2 (stereo unspecified) , reported GI50: > 100 µM (inactive)

----------
- Tested on: HL-60
- Protocol description: NCI tumour cell line growth inhibition, 48 h
Calls of active or inactive are those of the source. Rule as the data show it: active = GI50 up to about 1.1 µM and inactive = higher.
Give one outcome, nothing more. List: 1.0 for active, 0.0 for inactive

Can you look up the reported call for O=C(Oc1cc(=O)c(OC(=O)c2ccccc2)co1)c1ccccc1 for me?
0.0

Can you look up the reported call for CC1=CC(C)C/C=C/C2C3OC3(C)C(C)C3C(Cc4c[nH]c5ccccc45)NC(=O)C23C(=O)C=CC(=O)C1O (centres undefined) for me?
0.0

Can you look up the reported call for O=C(c1cccs1)N(C(=S)OCc1ccccn1)c1ccccc1 for me?
0.0

Can you look up the reported call for CN(C)CCSc1cc(-c2ccccc2)c2ccccc2n1 for me?
0.0

Can you look up the reported call for Cc1cccc2c1Oc1cc(Cl)ccc1C2NC(=O)CCN1CCCCC1 (centres undefined) for me?
0.0

----------
- Test system: HCT-116
- Protocol description: NCI tumour cell line growth inhibition, 48 h
Calls of active or inactive are those of the source. No stated cut-off is given here; in the data, active = GI50 up to about 1.1 µM and inactive = higher.
Give one outcome, nothing more. List: T for active, F for inactive

# count of solved cases: 2
Can you look up the reported call for C/C(=N\NC(=[Se])N1CCN(c2ccccn2)CC1)c1ccccn1 for me?
T

Can you look up the reported call for Cc1cc(N(CCOS(C)(=O)=O)CCOS(C)(=O)=O)ccc1/C=N/c1ccc(-c2csc(-c3ccccc3)n2)c(Cl)c1 for me?
F

***
Can you look up the reported call for CC(=O)c1ccc(Oc2ccc(/C(C)=N\N=C(N)N)cc2)cc1 for me?
F

Can you look up the reported call for CC(=O)OC1CC2C(C)(C)C(=O)C=CC2(C)C2CCC3(C)C(c4ccoc4)OC(=O)C4OC43C12C (centres undefined) for me?
F

Can you look up the reported call for CCOC(=O)[C@H]1Nc2ccc([N+](=O)[O-])cc2C2c3ccccc3CC21 (some centres undefined) for me?
F

Can you look up the reported call for Cc1cc2occ(C)c(=O)c2c2c1OC(C)(C)S2 for me?
F

Can you look up the reported call for NC(=O)c1c2c(n3ccccc13)C(=O)c1ccccc1C2=O for me?
F

Can you look up the reported call for CC(=O)Nc1ccc2c3c(cc(O)c2c1)N(C(=O)CCCCC(=O)N1CC(CCl)c2c1cc(O)c1cc(NC(C)=O)ccc21)CC3CCl (centres undefined) for me?
T

Can you look up the reported call for N#Cc1c(NC(=S)NCc2ccccc2)sc2c1CCN(N1CCc3c(sc(NC(=S)NCc4ccccc4)c3C#N)C1)C2 for me?
F

----------
- Test system: OVCAR-5
- Protocol description: NCI tumour cell line growth inhibition, 48 h
The source made the active and inactive calls. No stated cut-off is given here; in the data, active = GI50 up to about 1.1 µM and inactive = higher.
Measured property: GI50

Worked set:
Memo: Cc1ccc2c(c1C)C(=O)C1(C2)Cc2ccc3c(c2C1=O)CCC3 (stereo not given) , reported GI50: > 100 µM (inactive)

Memo: Cc1ccc(O)c(C(=O)/C=C/c2ccccc2)c1 , reported GI50: > 100 µM (inactive)

Memo: COc1cc2c(cc1C)NC(=O)/C2=C/c1cccnc1 , reported GI50: 13.6 µM (inactive)

***
Memo: O=C(N/C(=C\c1ccc([N+](=O)[O-])cc1)c1nc2ccccc2s1)c1ccccc1 , reported GI50: 54.7 µM (inactive)

Memo: CCOC(=O)c1cn(CC)c2cc3c(cc2c1=O)CCS3(=O)=O , reported GI50: > 100 µM (inactive)

Memo: COc1ccccc1Cn1[nH]c(=O)c2cc([N+](=O)[O-])ccc21 , reported GI50: > 100 µM (inactive)

Memo: COC(O)C12OC3CO[Si](C(C)C)(C(C)C)O[Si](C(C)C)(C(C)C)OC3C1Oc1nc(=O)ccn12 (stereo not given) , reported GI50: 15.7 µM (inactive)

Memo: Brc1ccc2c(-c3csc(-c4c[nH]c5ccc(Br)cc45)n3)c[nH]c2c1 , reported GI50: 2.44 µM (inactive)

Memo: COC(=O)CCC(C)[C@H]1CCC2C3C(C[C@H](OC(C)=O)[C@@]21C)[C@@]1(C)CCC2(C[C@H]1C[C@H]3OC(C)=O)OOC1(CCC(C)CC1)OO2 (stereo not given in full) , reported GI50: > 100 µM (inactive)

Memo: C/C(=N/NC(=O)c1ccncc1)C(F)(F)F , reported GI50: > 100 µM (inactive)

----------
- System: NCI-H522
- Protocol description: NCI tumour cell line growth inhibition, 48 h
Activity calls are given as the source filed them. Rule as the data show it: active = GI50 up to about 1.1 µM and inactive = higher.
Give one outcome, nothing more. List: active, inactive

# count of solved cases: 3
Can you look up the reported call for CN(C)CCSc1cc(-c2ccccc2)c2ccccc2n1 for me?
inactive

Can you look up the reported call for O=C(O)C1CC2CC(=O)C1C2 (configuration not stated) for me?
inactive

Can you look up the reported call for CCCCCCCCCCCCCC(=O)OC(/C=C/C(C)C)C(O)C(O)C(OC)C(=O)NC1CCCCN(C)C1=O (configuration not stated) for me?
inactive

***
Can you look up the reported call for O=C(O)c1nc2ccc(C(F)(F)F)cc2nc1Nc1ccc(Cl)c(Cl)c1 for me?
inactive

Can you look up the reported call for CSC1=N/C(=C\c2ccccc2)C(=O)N1CN1CCOCC1 for me?
inactive

Can you look up the reported call for CCOC(=O)c1nc(-c2ccccc2)oc1OCC for me?
inactive

Can you look up the reported call for O=c1ccn(/C=C/C(O)C(O)CO)c(=O)[nH]1 (configuration not stated) for me?
inactive

----------
- System: NCI-H23
- Protocol description: NCI tumour cell line growth inhibition, 48 h
Activity calls are given as the source filed them. Cut-off read from the data, not from the text of the source: active = GI50 up to about 1.1 µM and inactive = higher.
Give one outcome, nothing more. List: t = active, f = inactive

# count of solved cases: 4
Can you look up the reported call for CCOC(=O)/C(O)=C(/C(=O)OC)c1ccc(Cl)cc1 for me?
f

Can you look up the reported call for CC(=O)O[C@H]1CC[C@@]2(C)C(=CC[C@@H]3[C@@H]2CC[C@]2(C)NC(=O)/C(=C\c4ccccc4)C[C@@H]32)C1 for me?
f

Can you look up the reported call for Cc1cccc2[nH]c3c(c(O)cc4[nH]c5cccc(C)c5c(=O)c43)c(=O)c12 for me?
f

Can you look up the reported call for CCOC(=O)CC(NC(=O)c1nc[nH]c1[N+](=O)[O-])C(=O)OCC (stereo not given) for me?
f

***
Can you look up the reported call for CCOC(=O)Nn1c(C)nnc1CC#N for me?
f

Can you look up the reported call for Cc1ccccc1OC(C)C(=O)NN1C(=O)CC(=O)NC1=S (stereo not given) for me?
f

Can you look up the reported call for COc1cc2c3c(c1OC)-c1ccccc1C(C(OC(C)=O)c1ccccc1)C3N(C)CC2 (stereo not given) for me?
f

Can you look up the reported call for Cc1cccc(Nc2cc(Cl)nc(SCC(=O)O)n2)c1C [PIRINIXIC ACID] for me?
f

Can you look up the reported call for COC1=CC(=O)c2c(O)c3c(c(O)c2C1=O)C=C(C)OC3O (stereo not given) for me?
t

Can you look up the reported call for CC1(C)CC(=O)C2=C(C1)OC1(CC2c2ccc(Cl)cc2)CC(c2ccc(Cl)cc2)C2=C(CC(C)(C)CC2=O)O1 (stereo not given) for me?
f
